# TESTED_SYSTEM: hemolysin alpha from Staphylococcus aureus (Staphylococcus aureus, UniProt P09616)
# Sequence (P09616 27-319 limits assumed): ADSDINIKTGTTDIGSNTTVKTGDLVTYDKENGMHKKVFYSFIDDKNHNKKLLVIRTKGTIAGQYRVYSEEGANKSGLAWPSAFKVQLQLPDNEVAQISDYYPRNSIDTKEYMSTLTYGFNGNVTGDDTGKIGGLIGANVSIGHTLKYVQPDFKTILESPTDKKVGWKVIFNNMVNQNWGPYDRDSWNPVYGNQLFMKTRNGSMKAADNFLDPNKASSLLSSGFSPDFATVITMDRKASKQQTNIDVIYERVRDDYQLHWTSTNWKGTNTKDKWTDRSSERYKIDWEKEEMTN
# METHOD_SUMMARY: cell-based
pEC50: −log10 of the molar value.
REPORTED_ENDPOINT: pEC50

[[record]]
molecule = "Cc1cc2[nH]c(=O)c(=O)[nH]c2cc1S(=O)(=O)NC12CC(c3ccccc3)(C1)C2 [Compound 230]"
reported_endpoint = "pEC50"
test_value = "6.00 to 7.00"

[[record]]
molecule = "Cc1cc2[nH]c(=O)c(=O)[nH]c2cc1S(=O)(=O)Nc1ccc(C2=CCCCC2)c(Cl)c1 [Compound 274]"
reported_endpoint = "pEC50"
test_value = "7.00 to 7.52"

[[record]]
molecule = "Cc1cc2[nH]c(=O)c(=O)[nH]c2cc1S(=O)(=O)Nc1ccc(-c2ccc3nccn3c2)c(Cl)c1 [Compound 328]"
reported_endpoint = "pEC50"
test_value = "6.00 to 7.00"

[[record]]
molecule = "Cc1cc2[nH]c(=O)c(=O)[nH]c2cc1S(=O)(=O)Nc1ccc(-c2cccc(O)c2)c(C(F)(F)F)c1 [Compound 366]"
reported_endpoint = "pEC50"
test_value = "> 7.52"

[[record]]
molecule = "Cc1cc2[nH]c(=O)c(=O)[nH]c2cc1S(=O)(=O)Nc1ccc(-c2cc(CO)ccc2F)c(Cl)c1 [Compound 282]"
reported_endpoint = "pEC50"
test_value = "7.00 to 7.52"


**Query** Report pEC50 for Cc1cc2[nH]c(=O)c(=O)[nH]c2cc1S(=O)(=O)Nc1ccc(-c2cccc(S(=O)(=O)N(C)C)c2)c(Cl)c1 [Compound 335]
**Result** 6.00 to 7.00

**Query** Note down pEC50 recorded for Cc1cc2[nH]c(=O)c(=O)[nH]c2cc1S(=O)(=O)Nc1ccc(-c2ccc3[nH]ncc3c2)c(Cl)c1 [Compound 273]
**Result** 7.00 to 7.52

**Query** Look up and state reported pEC50 for Cc1cc2[nH]c(=O)c(=O)[nH]c2cc1S(=O)(=O)Nc1cnn(-c2ccccc2)c1 [Compound 207]
**Result** 5.46 to 6.00

**Query** Respond only with pEC50 recorded for CCO/C=C/c1ccc(NS(=O)(=O)c2cc3[nH]c(=O)c(=O)[nH]c3cc2C)cc1Cl [Compound 293]
**Result** 6.00 to 7.00

**Query** Entry Cc1cc2[nH]c(=O)c(=O)[nH]c2cc1S(=O)(=O)Nc1ccc(C2CCCCC2)c(Cl)c1 [Compound 284] needs its pEC50 filled in; supply it.
**Result** 7.00 to 7.52

**Query** Give the reported value of pEC50 for this record: Cc1cc2[nH]c(=O)c(=O)[nH]c2cc1S(=O)(=O)Nc1ccc(-c2ccc(OC3CC3)cc2)c(Cl)c1 [Compound 268]
**Result** 7.00 to 7.52

**Query** Return reported pEC50. Input molecule: Cc1nc2cc(-c3ncc(NS(=O)(=O)c4cc5[nH]c(=O)c(=O)[nH]c5cc4C)cc3Cl)ccc2o1 [Compound 375]
**Result** 7.00 to 7.52

**Query** # return recorded pEC50 for input Cc1cc2[nH]c(=O)c(=O)[nH]c2cc1S(=O)(=O)Nc1ccc(-c2cc(F)cc(C(N)=O)c2)c(C(F)(F)F)c1 [Compound 363]
**Result** 7.00 to 7.52

**Query** # return recorded pEC50 for input Cc1cc2[nH]c(=O)c(=O)[nH]c2cc1S(=O)(=O)Nc1ccc(-c2cn(C)c3ccccc23)c(Cl)c1 [Compound 340]
**Result** 6.00 to 7.00

**Query** Item Cc1cc2[nH]c(=O)c(=O)[nH]c2cc1S(=O)(=O)Nc1ccc(OC(F)(F)F)c(Cl)c1 [Compound 324] : provide pEC50
**Result** 7.00 to 7.52

**Query** Please report pEC50 for the following molecule: Cc1cc2[nH]c(=O)c(=O)[nH]c2cc1S(=O)(=O)Nc1ccc(-c2ccc3cc[nH]c3c2)c(Br)c1 [Compound 374]
**Result** > 7.52

**Query** Using the record for O=c1[nH]c2cc(C(F)F)c(S(=O)(=O)Nc3ccc(OC(F)(F)F)cc3)cc2[nH]c1=O [Compound 218] , state its measured pEC50.
**Result** 6.00 to 7.00
